- System: NCI-H23 lung
- experimentalProtocol: NCI tumour cell line growth inhibition, 48 h
This section presents compounds with their documented TGI values.
readoutType: TGI (µM)

>  <compound>
CC(=O)OCC1OC(NC(=S)CCSc2nc3ccccc3c(=O)n2-c2ccccc2)C(OC(C)=O)C(OC(C)=O)C1OC(C)=O (configuration not stated)

>  <studySystem>
NCI-H23 lung

>  <inequalitySymbol>
>

>  <assayResult>
100

$$$$
>  <compound>
COC(=O)[C@](NC(=O)OCc1ccccc1)([C@@H](C)Sc1ccc(C)cc1)C(F)(F)F

>  <studySystem>
NCI-H23 lung

>  <inequalitySymbol>
=

>  <assayResult>
58.5

$$$$
>  <compound>
CCN(CC)CCn1c(=O)c2ccccc2n2c3c(=O)n(C)c(=O)n(C)c3nc12

>  <studySystem>
NCI-H23 lung

>  <inequalitySymbol>
=

>  <assayResult>
10.1

$$$$
>  <compound>
COC(=O)C(Cc1nc2ccc(Cl)cc2[nH]c1=O)/C(=N/O)C(=O)Nc1cccc(Cl)c1C (configuration not stated)

>  <studySystem>
NCI-H23 lung

>  <inequalitySymbol>
>

>  <assayResult>
100

$$$$
>  <compound>
CCN(CC)c1ccc2cc(C(=O)Nc3ccccc3OC)c(=N)oc2c1

>  <studySystem>
NCI-H23 lung

>  <inequalitySymbol>
=

>  <assayResult>
89.8

$$$$
>  <compound>
COC(=O)c1sc(=O)n(-c2ccccc2)c1SCc1ccccc1

>  <studySystem>
NCI-H23 lung

>  <inequalitySymbol>
>

>  <assayResult>
100

$$$$
>  <compound>
CCC#CCCCCCCCCC(F)C(=O)O (configuration not stated)

>  <studySystem>
NCI-H23 lung

>  <inequalitySymbol>
>

>  <assayResult>
100

$$$$

====

- Tested on: M14 melanoma
- experimentalProtocol: NCI tumour cell line growth inhibition, 48 h
This section presents compounds with their documented TGI values.

>  <compound>
C=CC(O)C#Cc1cnc(OC)nc1OC (centres undefined)

>  <measurementUnit>
µM

>  <inequalitySymbol>
>

>  <TGI>
100

$$$$
>  <compound>
CC[C@@]1(O)C(=O)OCc2c1cc1n(c2=O)Cc2cc3c([N+](=O)[O-])c(OC)ccc3nc2-1

>  <measurementUnit>
µM

>  <inequalitySymbol>
=

>  <TGI>
0.635

$$$$
>  <compound>
C=C1[C@@H](OC(C)=O)[C@H]2[C@@H](OC(C)=O)[C@@](C)(OC(C)=O)C[C@]2(OC(C)=O)C(=O)[C@@H](C)/C=C/C(C)(C)C(=O)C[C@H]1OC(C)=O

>  <measurementUnit>
µM

>  <inequalitySymbol>
>

>  <TGI>
100

$$$$
>  <compound>
CC(C)(C)CC(C)(C)c1ccc(OCCSC(=N)N)cc1

>  <measurementUnit>
µM

>  <inequalitySymbol>
=

>  <TGI>
3.42

$$$$

====

- Tested on: COLO 205 colon
- experimentalProtocol: NCI tumour cell line growth inhibition, 48 h; in the data active = GI50 below about 0.43 µM; inactive = the rest
Outcome codes: label 1 (active), label 0 (inactive)

>  <compound>
Cc1cc(I)cc(CN(C)CCN(C)C)c1O

>  <classAssignment>
label 0

$$$$
>  <compound>
CCOC(=O)c1ccc(NC(=O)Nc2nccs2)cc1

>  <classAssignment>
label 1

$$$$
>  <compound>
CCC(/C=C(C)/C=C/C(=O)c1c(O)c(-c2ccc(O)cc2)c[nH]c1=O)CO (stereo unspecified)

>  <classAssignment>
label 0

$$$$
>  <compound>
C/C=C(/C(=C/C)c1ccc(O)cc1)c1ccc(O)cc1

>  <classAssignment>
label 0

$$$$
>  <compound>
COc1cc(-c2cncn2-c2ccc(-c3nc4ccc(F)cc4s3)cc2)ccc1F

>  <classAssignment>
label 0

$$$$
>  <compound>
O=c1ccc(N=Nc2ccccc2)ccc1Cl

>  <classAssignment>
label 0

$$$$

====

This section presents compounds with their documented GI50 values.
- Tested on: A498 renal
- experimentalProtocol: NCI tumour cell line growth inhibition, 48 h

>  <compound>
CN(C)c1ccc(O)c2c1CC1CC3C(N(C)C)C(=O)C(C(N)=O)=C(O)C3(O)C(=O)C1=C2O (centres undefined)

>  <GI50>
6.96 µM

$$$$
>  <compound>
Oc1ccc(/C=C/c2ccc(O)cc2)cc1

>  <GI50>
10.3 µM

$$$$
>  <compound>
O=C1c2[nH]cc(CN3CCN(CCO)CC3)c2C(=O)c2c1c(O)c1ccccc1c2O

>  <GI50>
13.2 µM

$$$$
>  <compound>
NS(=O)(=O)c1ccc(Nc2ncc(-c3ccccc3)o2)cc1

>  <GI50>
> 19.6 µM

$$$$
>  <compound>
C=C1C(=O)O[C@H]2[C@H]1CC/C(COC(=O)NCc1[nH]nc3ccccc13)=C\CC[C@@]1(C)O[C@@H]21

>  <GI50>
12.6 µM

$$$$
>  <compound>
CC[C@@]1(O)C(=O)OCc2c1cc1n(c2=O)Cc2cc3c([N+](=O)[O-])c(OC)ccc3nc2-1

>  <GI50>
0.184 µM

$$$$
>  <compound>
CCCCN(CCCC)CC(O)c1ccc(OCc2ccccc2)c2ccccc12 (centres undefined)

>  <GI50>
3.41 µM

$$$$
>  <compound>
CCSc1ccc2c(c1)N(CCCN1CCN(C)CC1)c1ccccc1S2

>  <GI50>
1.83 µM

$$$$
>  <compound>
CCC(/C=C(C)/C=C/C(=O)c1c(O)c(-c2ccc(O)cc2)c[nH]c1=O)CO (centres undefined)

>  <GI50>
3.69 µM

$$$$

====

- System: NCI-H23 lung
- experimentalProtocol: NCI tumour cell line growth inhibition, 48 h
readoutType: TGI

>  <compound>
N=C1N(c2ccccc2)C(=S)C(=Nc2ccccc2)N1c1ccccc1

>  <assayResult>
18 µM

$$$$
>  <compound>
COC(=O)C(C(=O)C(=O)Nc1ccc(Br)cc1)c1nc2ccc(Cl)cc2[nH]c1=O (stereo unspecified)

>  <assayResult>
> 100 µM

$$$$
>  <compound>
N#Cc1c(-c2ccccc2)n([O-])c2ccccc2[n+]1=O

>  <assayResult>
40.3 µM

$$$$
>  <compound>
O=C1C=CC(=O)N1n1c(Cc2ccccc2)n[nH]c1=O

>  <assayResult>
> 100 µM

$$$$
>  <compound>
CN=c1oc2ccccc2cc1C(N)=O

>  <assayResult>
> 100 µM

$$$$
>  <compound>
O=C(Nc1cccc(-n2cc(-c3ccncc3)c(-c3ccc(Cl)c(O)c3)n2)c1)Nc1cccc(C(F)(F)F)c1

>  <assayResult>
> 32.5 µM

$$$$
>  <compound>
Cc1nc2c(=O)n(C)c(=O)n(C)c2o1

>  <assayResult>
> 100 µM

$$$$
>  <compound>
COc1ccc(N(CC(=O)O)S(=O)(=O)c2ccccc2)cc1

>  <assayResult>
> 100 µM

$$$$
>  <compound>
COc1cc(/C=C/c2cccnc2)cc(OC)c1OC

>  <assayResult>
> 100 µM

$$$$
>  <compound>
COc1ccc(NCC#N)cc1

>  <assayResult>
> 100 µM

$$$$
>  <compound>
C[Si]1(C)C(c2ccccc2)=CC2C(c3ccccc3)(c3ccccc3)OC21c1ccccc1 (stereo unspecified)

>  <assayResult>
> 100 µM

$$$$

====

- Tested on: UO-31 renal
- experimentalProtocol: NCI tumour cell line growth inhibition, 48 h
readoutType: TGI

>  <compoundString>
CCCCC/C=C/C(=O)CCc1ccc(O)c(OC)c1

>  <studySystem>
UO-31 renal

>  <assayResult>
13.6 µM

$$$$
>  <compoundString>
Cc1ccc(NS(=O)(=O)c2ccc(-c3cnc(C4CC4)o3)cc2)cc1C

>  <studySystem>
UO-31 renal

>  <assayResult>
7.74 µM

$$$$
>  <compoundString>
COc1ccc(-c2nc3ccc([N+](=O)[O-])cc3c(=O)[nH]2)cc1

>  <studySystem>
UO-31 renal

>  <assayResult>
> 100 µM

$$$$
>  <compoundString>
N#CCCN(CCNc1ccccc1)C(=O)Nc1ccc(NC(=O)N(CCC#N)CCNc2ccccc2)cc1

>  <studySystem>
UO-31 renal

>  <assayResult>
> 100 µM

$$$$
>  <compoundString>
CC[N+](C)(CC)CCNC(=O)C(O)(c1ccccc1)c1ccccc1

>  <studySystem>
UO-31 renal

>  <assayResult>
> 100 µM

$$$$
>  <compoundString>
O=C1Nc2ccccc2S/C1=C\c1ccc(C(F)(F)F)cc1

>  <studySystem>
UO-31 renal

>  <assayResult>
> 100 µM

$$$$

====

- Test system: NCI/ADR-RES ovarian
- experimentalProtocol: NCI tumour cell line growth inhibition, 48 h
This section presents compounds with their documented TGI values.
readoutType: TGI

>  <compound>
COc1c(-c2nc3nc(N4CCN(C)CC4)ccc3[nH]2)cc(OC)c2c1nc(CO)n2C

>  <assayResult>
> 100 µM

$$$$
>  <compound>
CCC(/C=C(C)/C=C/C(=O)c1c(O)c(-c2ccc(O)cc2)c[nH]c1=O)CO (stereo not given)

>  <assayResult>
> 100 µM

$$$$
>  <compound>
COC(=O)Cc1ccc(Oc2nc3ccccc3nc2-c2cccs2)cc1

>  <assayResult>
> 100 µM

$$$$
>  <compound>
CCCCC/C=C/C(=O)CCc1ccc(O)c(OC)c1

>  <assayResult>
37 µM

$$$$
>  <compound>
O=Cc1ccc(-c2nccc3c2[nH]c2ccccc23)o1

>  <assayResult>
> 100 µM

$$$$
>  <compound>
C=C1C(=O)O[C@H]2[C@H]1CC/C(COC(=O)NCc1[nH]nc3ccccc13)=C\CC[C@@]1(C)O[C@@H]21

>  <assayResult>
22.5 µM

$$$$
>  <compound>
CCC(CC)COC(=O)[C@H](C)N[P@](=O)(OC[C@H]1O[C@@](C#N)(c2ccc3c(N)ncnn23)[C@H](O)[C@@H]1O)Oc1ccccc1

>  <assayResult>
> 100 µM

$$$$
>  <compound>
Cc1[nH]c2ncn(Nc3ccccc3)c(=N)c2c1Cc1ccccc1

>  <assayResult>
> 100 µM

$$$$
>  <compound>
O=[N+]([O-])c1ccc2nc3n(c2c1)C(c1c(F)cccc1F)SC3 (stereo not given)

>  <assayResult>
> 100 µM

$$$$
>  <compound>
COc1ccc(/C=N/Nc2nc(N)nc(N3CCCC3)c2C#N)cc1

>  <assayResult>
40.2 µM

$$$$
